target: T1, human GFRα3 expressed with a C-terminal myc-myc-hexahistidine tag (human, UniProt O60609 32-374, biotinylated (sites not given) in ELISA format 2 and in the Octet cross-competition; not in SPR); assay: SPR, Ab captured, 37C
T1 construct: also called hGFRα3-mmh; hGFRα3-mmH
T1 sequence (O60609 other isoform, or with tags, fused parts or gaps limits assumed): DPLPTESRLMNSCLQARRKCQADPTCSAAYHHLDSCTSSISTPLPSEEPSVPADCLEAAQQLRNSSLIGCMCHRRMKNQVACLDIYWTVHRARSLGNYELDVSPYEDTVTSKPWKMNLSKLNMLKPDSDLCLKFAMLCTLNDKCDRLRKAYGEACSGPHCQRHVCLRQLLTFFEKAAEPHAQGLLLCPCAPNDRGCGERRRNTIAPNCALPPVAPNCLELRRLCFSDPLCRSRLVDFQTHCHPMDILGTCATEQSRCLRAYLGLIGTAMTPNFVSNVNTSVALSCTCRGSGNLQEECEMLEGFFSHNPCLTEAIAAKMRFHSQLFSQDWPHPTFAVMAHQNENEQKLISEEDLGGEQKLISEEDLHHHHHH
OBSERVABLE: t1/2 (min)

BINDER	OBSERVABLE	MEASURED_VALUE
H4H2291S (antibody, human IgG4, V domains shown, human IgG4 Fc (H4H)) VH: EVQLVESGGGLVQPGESLRLSCAASGFTFSNYAMSWVRQAPGKGLEWVSVISGSGGSTYYADSVKGRFTMSRDNSKNTLYLQMNSLRAEDTAVYYCAKPPSRAARYFNYGMDVWGQGTTVTVSS VL: AIRMTQSPSSVSASVGDRVTITCRASQGISSWLAWYQQKPGKAPKLLIYAASSLQSGVPSRFSGSGSGTDFTLTISSLQPEDFATYYCQQANSFPFTFGGGTKVEIK	t1/2	36
H4H2292S (antibody, human IgG4, V domains shown, human IgG4 Fc (H4H)) VH: EVQLVESGGGVVQPGRSLRLSCAASGFTFSSYGMHWVRQAPGKGLEWVSFIWYDGSNKYYADSVKGRFTISRDNSKNTLYLQMNSLTAEDTAVYYCARRGILTGTTAFDIWGQGTMVTVSS VL: DIQMTQSPSSLSASVGDRVTITCRASQSISSYLNWYQQKPGKAPKLLIYAASSLQSGVPSRFSGSGSGTDFTLTIRSLIPEDFATYYCQQTYNTPFTFGPGTKVEIK	t1/2	46
H1M2243N (antibody, V domains shown, chimeric, human variable and mouse constant domains (H1M)) VH: QVQLVQSGAEVKKPGASVKVSCKASGYTFTSYGIIWVRQAPGQGLEWMGWISGYNGNTNYTQNLQGRVTMTTDTSTTTAYMELRSLRSDDTAVYYCARWGIATRPYYYYGMDVWGQGTTVTVSS VL: DIQMTQSPSSLSASVGDRVTITCRASQDITNYLAWFQQKPGKAPKSLIYAASSLQSGVPSKFSGSGSGTDFTLTISSLQPEDFATYYCQQYNSYPPTFGPGTKVDIK	t1/2	19
